assay-system: AdipoR1 (Homo sapiens, UniProt Q96A54)
test-details: Measurement of AMPK phosphorylation ability (Assay 1), HEK 293T cells, Western blotting
Format: cell-based
Parameters: HEK 293T cells (ATCC; CRL-3216, medium; host or cells: HEK 293T
recorded-conditions: 25 μM, 10 minutes
measurement-label: pAMPK/AMPK (%)

> print(dat)
                                   compound                            assay.system  unit.label  measured.result
1  O=C(COc1ccc(Cl)cc1)NC1CCN(Cc2ccc(Cl)c(Cl)c2)CC1  AdipoR1 (Homo sapiens, UniProt Q96A54)           %           106.31
2  CCOc1ccccc1C(=O)N1CCC(NC(=O)OCc2ccc([N+](=O)[O-])cc2)CC1  AdipoR1 (Homo sapiens, UniProt Q96A54)           %            51.41
3  O=C(COc1ccc(C(=O)c2ccccc2)cc1)NC1CCN(Cc2ccc(Cl)cc2)CC1  AdipoR1 (Homo sapiens, UniProt Q96A54)           %           106.36
4  CCOc1ccc(CN2CCN(C(=O)CCNC(=O)c3ccc(F)cc3Cl)CC2)cc1  AdipoR1 (Homo sapiens, UniProt Q96A54)           %            78.20
5  COc1cc(C(C)=O)ccc1OCC(=O)NC1CCN(Cc2ccc(Cl)c(Cl)c2)CC1  AdipoR1 (Homo sapiens, UniProt Q96A54)           %            88.71

I = CC(C)(C)c1ccc(C(=O)NCCC(=O)N2CCN(Cc3cccc4cccnc34)CC2)cc1
II = CCC(=O)c1ccc(OCC(=O)NC2CCN(Cc3ccccc3)CC2C)cc1 (stereo not shown)
IN: Of I and II , whose reported pAMPK/AMPK (%) is numerically smaller? // respond with label for picked entry
OUT: II

----------
assay-system: UniProt:Q96A54
Sequence (Q96A54 1-375): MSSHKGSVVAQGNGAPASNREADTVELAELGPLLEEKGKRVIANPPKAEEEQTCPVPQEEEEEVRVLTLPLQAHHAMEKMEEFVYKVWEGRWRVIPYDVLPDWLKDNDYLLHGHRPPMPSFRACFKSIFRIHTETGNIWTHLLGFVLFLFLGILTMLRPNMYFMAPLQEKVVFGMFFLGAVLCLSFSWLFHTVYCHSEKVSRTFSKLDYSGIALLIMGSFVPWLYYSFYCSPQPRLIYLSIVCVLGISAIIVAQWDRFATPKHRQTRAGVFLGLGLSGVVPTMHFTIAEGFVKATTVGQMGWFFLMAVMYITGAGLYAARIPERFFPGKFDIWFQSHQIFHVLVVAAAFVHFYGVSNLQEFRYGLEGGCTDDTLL
test-details: Measurement of AMPK phosphorylation ability (Assay 2), HEK 293T cells with unrelated or AdipoR1 siRNA
Type: cell-based
Set-up: HEK 293T cells (ATCC; CRL-3216, medium; host or cells: HEK 293T
recorded-conditions: AdipoR1 siRNA
measurement-label: pAMPK/AMPK (ratio) siRNA, AdipoR1 siRNA

> print(dat)
                                   compound    assay.system  measured.result
1  O=C(NCCC(=O)N1CCN(Cc2cccc(OC(F)(F)F)c2)CC1)c1ccc([N+](=O)[O-])cc1  UniProt:Q96A54             4.03

P = CC(C)c1ccc(CN2CCN(C(=O)CCNC(=O)c3ccc([N+](=O)[O-])cc3)CC2)cc1
Q = CC(c1ccccc1)N1CCC(NC(=O)COc2ccc(Oc3ccccn3)cc2)CC1 (centres unmarked)
IN: Return label of the item with the larger pAMPK/AMPK (ratio) siRNA, AdipoR1 siRNA. Candidates: P , Q . Selection: enter the item's label.
OUT: P
(P: 3.57 ratio, Q: 2.44 ratio)
